# Tested on: HOP-92 NSCLC
# TEST_METHOD_NOTES: NCI-60 one-dose screen, 48 h (100 = growth as untreated, 0 = no growth, -100 = all killed)
# COND: 10 µM unless noted
The panel holds about 83,000 compounds, 20% with a hit somewhere; the sample as a whole holds those more often.
Classify: satisfied when growth is strictly less than 80%; not satisfied when growth is not.

COMPOUND	LABEL_CLASS
CCc1nnc(NC(=O)c2cc(-c3ccc(Cl)cc3Cl)oc2C)s1	not satisfied
NNc1nnc2nc(Nc3ccccc3)nc(Nc3ccc(S(N)(=O)=O)cc3)n12	not satisfied
CC(=O)N1N=C(c2cc3ccccc3oc2=O)CC1c1cn(-c2ccccc2)nc1-c1ccc(C)cc1 (configuration not stated)	not satisfied
Brc1ccc(-c2cc(-c3ccc4c(c3)OC=CO4)n[nH]2)s1	not satisfied
NC(=S)n1c(=O)n(-c2cccc(C(F)(F)F)c2)c(=O)c2cc(-c3ccc(F)cc3F)ccc21	satisfied
Cc1ccccc1Nc1nc(SC(C)C)nc(-c2ccccc2)c1C#N	satisfied
CC(=O)OC[C@]12CC[C@@H](C(=O)/C=C/c3cccnc3)[C@@H]1[C@H]1CC[C@@H]3[C@@]4(C)CC[C@H](OC(C)=O)C(C)(C)[C@@H]4CC[C@@]3(C)[C@]1(C)CC2	satisfied
Cn1cc(-c2cc3ncnc(Nc4ccc(CC(=O)Nc5nc(C(C)(C)C)cs5)cc4)c3s2)cn1	not satisfied
COCCOc1ccc2ncc(C#Cc3cncc(C(=O)Nc4ccc(CN5CCN(C)CC5)c(C(F)(F)F)c4)c3)n2n1	satisfied
CN1CCN(c2ccc(Nc3nc(NCCCNS(=O)(=O)c4cccc5ccccc45)c4sccc4n3)cc2)CC1	satisfied
CCNC(=O)Oc1ccc(/C(=C(/C)c2ccc(OC)cc2)c2ccc(OCCN3CCCCCC3)cc2)cc1	satisfied
CCN(CC)S(=O)(=O)c1ccc(-c2nc(C(Cl)Cl)nc3cc(-c4ccc(F)cc4)nn23)cc1	satisfied
CN1CCN(Cc2ccc(NC(=O)c3cncc(C#Cc4cnc5ccc(N6CCOCC6)nn45)c3)cc2C(F)(F)F)CC1	satisfied
O=C(CCCCCCN1CC(=O)N2[C@@H](c3ccc(Cl)s3)c3[nH]c4ccccc4c3C[C@H]2C1=O)NO	satisfied
NS(=O)(=O)c1ccc(Nc2nc(Nc3ccccc3)nc(N3N=C(c4ccc(Cl)cc4)CC3c3ccc(Cl)cc3)n2)cc1 (configuration not stated)	satisfied
Fc1cccc(Cl)c1/C=N/Nc1nc(N/N=C/c2c(F)cccc2Cl)nc(N2CCCCC2)n1	satisfied
O=C(/C=C/c1cccc(F)c1)c1cccc(OCCCOc2cccc(C(=O)/C=C/c3cccc(F)c3)c2)c1	not satisfied

---

# Test system: OVCAR-5 ovarian
# TEST_METHOD_NOTES: NCI-60 one-dose screen, 48 h
# COND: 10 µM unless noted
# Protocol: Growth inhibition of the OVCAR-5 human tumor cell line is measured as a screen for anti-cancer activity. Cells are grown in 96 well plates and exposed to the test compound for 48 hours. Compounds are tested at a single concentration, which is 10^-5 M for most compounds. The reported endpoint is percent growth (GI% or GIPRCNT), where numbers from 0 - 100% represent growth inhibition, and numbers from -100% - 0 represent cell death. For example, a value of 40 represents 60% growth inhibition. […]
About 83,000 compounds went through this panel and 20% of them were active in at least one assay; those are over-represented in the sample as a whole. Calls of active or inactive are those of the source. The calls were made as follows: active = growth percent below 10; inactive = the rest.
Outcomes: active, inactive

COMPOUND	LABEL_CLASS
COC(=O)c1ccc(NC2=C(Cl)C(=O)C(C)=C(C)C2=O)cc1	inactive
Cc1ccc2c(n1)C(=O)C(Cl)=C(Nc1ccc(C#N)cc1)C2=O	inactive
C#CCOc1cccc(-c2nc(N)nc(Nc3ccccc3SSc3ccccc3Nc3nc(N)nc(-c4cccc(OCC#C)c4)n3)n2)c1	inactive
Cc1ccc2c(n1)C(=O)C(Cl)=C(Nc1cc(C(F)(F)F)cc(C(F)(F)F)c1)C2=O	inactive
Cc1ccc2c(n1)C(=O)C(Cl)=C(Nc1ccc(C(=O)OC(C)(C)C)cc1)C2=O	inactive
C#CCn1cc(/C=N/Nc2nc(-c3ccc(Br)cc3)cs2)c2ccccc21	inactive
COC(=O)c1ccc(NC2=C(Cl)C(=O)c3nc(C)ccc3C2=O)cc1	inactive
O=c1oc2ccc(-c3ccc(F)cc3F)cc2c(=O)n1-c1ccc(Br)cc1F	inactive
N#Cc1c(-c2cccs2)cc(-c2cnccn2)nc1SCC(=O)N/N=C/c1ccncc1	inactive
CC(C)(C)c1cc(NC(=O)Nc2ccc(-c3cn4c5c(sc4n3)CCc3cn(CCCN4CCCCC4)cc3-5)cc2)no1	active
CCCNNC(=O)c1ccc(-c2ccc(NC(=O)CCCCCCC(=O)N[C@H](C(=O)N3C[C@H](O)C[C@H]3C(=O)N[C@@H](C)c3ccc(-c4scnc4C)cc3)C(C)(C)C)cc2)cc1	inactive
O=C(/C=C/c1ccccc1Cl)Nc1ncc(Cc2cc(Cl)ccc2Cl)s1	inactive
CCN(CC)c1ccc(/C=N/NC(=O)c2ccc(S(N)(=O)=O)cc2)c(O)c1	inactive
FC(F)(F)c1cc(Br)cc(-c2cc(-c3ccc4c(c3)OCCO4)[nH]n2)c1	inactive
O=C1CSC(c2cn(-c3ccccc3)nc2-c2ccc(Cl)cc2)N1c1ccccc1 (centres undefined)	inactive
O=C1/C(=C/c2cc(F)cc(F)c2)Cc2cc3c(cc21)OCO3	inactive
Cc1ccc(C(=O)Nc2ccc(CNCCN3CCOCC3)c(C(F)(F)F)c2)cc1C#Cc1cnc2cccnn12	inactive
Cc1ccccc1Nc1nc(SC(C)C)nc(-c2ccccc2)c1C#N	inactive
Cc1ccc(-c2nc(SCC(=O)c3ccccc3)nc(Nc3ccc(S(N)(=O)=O)cc3)c2C#N)cc1	inactive

---

# Tested on: SF-539 CNS
# TEST_METHOD_NOTES: NCI-60 one-dose screen, 48 h (100 = growth as untreated, 0 = no growth, -100 = all killed)
# COND: 10 µM unless noted
About 83,000 compounds went through this panel and 20% of them were active in at least one assay; those are over-represented in the sample as a whole.
Values of growth greater than or equal to 80% map to yes (1); values below map to no (0).

COMPOUND	LABEL_CLASS
Cc1[nH]c(C(=O)Nc2ccccc2OCc2cccc(C(=O)NC3CCCNC3)c2)c(Cl)c1Cl (centres undefined)	no (0)
COc1ccc(C2CC(c3cccc(OCCCCOc4cccc(C5=NOC(c6ccc(OC)cc6)C5)c4)c3)=NO2)cc1 (centres undefined)	yes (1)
O=C1C(SCc2ccccc2)=C(Cl)CN1c1ccc(Cl)cc1	yes (1)
N#Cc1c(-c2cccs2)cc(-c2cnccn2)nc1SCC(=O)N/N=C/c1ccncc1	yes (1)
COC(=O)c1ccc(NC2=C(Cl)C(=O)C(C)=C(C)C2=O)cc1	no (0)
CN1CCN(c2ccc(Nc3nc(NCCCNS(=O)(=O)c4ccccc4)c4sccc4n3)cc2)CC1	no (0)
NC1CC2(CCN(c3cnc(C(=O)Nc4cc(F)cc5cccnc45)cn3)CC2)C1	no (0)
O=S(=O)(NCCCNc1nccc(-c2[nH]c(-c3ccccc3)nc2-c2ccc(F)c(O)c2)n1)c1cccc2ccccc12	yes (1)

---

// reported growth for each item listed
# System: SK-MEL-5 melanoma
# TEST_METHOD_NOTES: NCI-60 one-dose screen, 48 h (100 = growth as untreated, 0 = no growth, -100 = all killed)
# COND: 10 µM unless noted
Compounds without any hit were thinned out: in the full panel of roughly 83,000, 20% have a hit.
QUANTITY_MEASURED: growth (%)

COMPOUND	VALUE_MEASURED
COc1ccccc1N1CCN(C2=C(Cl)C(=O)c3ncccc3C2=O)CC1	96.4
O=S(=O)(Oc1ccc(-c2cn3ccoc3n2)cc1)c1cccc(C(F)(F)F)c1	96.1
COc1cc2oc(-c3cccc(NC(=O)c4cccc([N+](=O)[O-])c4)c3)cc(=O)c2c(OC)c1OC	55
OCC(Nc1ncnc2ccc(-c3cnc4cnccn34)cc12)c1ccccc1 (stereo not given)	37.5
O=S1SC(c2ccccc2)=NN1c1cc(F)cc(F)c1 (stereo not given)	50.4
C/C(=N\NC(N)=S)c1nnn(-c2ccc([N+](=O)[O-])cc2)c1C	100
Brc1ccc2[nH]cc(-c3nn4cc(-c5nccs5)nc4s3)c2c1	73.1
O=C1Nc2ccccc2/C1=N\c1nnc(-c2ccccc2)o1	94.3
C#CCOc1cccc(/C(N)=N/C(N)=N/c2nc3ccccc3s2)c1	95.3
COc1ccc(/C=N/NC(=O)c2c(N)nn(C)c2Nc2ccccc2)cc1	57.2
CC(Nc1ncnc2ccc(-c3cnc(N)nc3)cc12)c1ccccc1 (stereo not given)	26.4
Cc1ccc(/C(N)=N/C(N)=N/c2nc3ccccc3s2)cc1	91
CCCc1cc2cc(-n3nc(CC)c4c3CC(C)(C)CC4=O)cc(NC3CCC(O)CC3)c2c(=O)[nH]1 (stereo not given)	14.1
Oc1[nH]c2ccc(Cl)cc2c1N=Nc1nc(N=Nc2c(O)[nH]c3ccc(Cl)cc23)nc(N2CCCCC2)n1	87
CC1=C(C)C(=O)C(Nc2ccc(C)c(C)c2)=C(Br)C1=O	89.1
C[C@]12CC[C@H]3[C@@H](CC=C4C[C@@H](O)CC[C@@]43C)[C@@H]1CC[C@@H]2[C@](C)(O)CCc1cccnc1	7.89
NS(=O)(=O)c1ccc(CCn2c(-c3ccc(C(=O)O)cc3)nc(-c3ccccc3)c2-c2ccccc2)cc1	99.1
O=C1c2ccccc2C23C(=C(c4cncnc4)c4ccccc42)CCCN13 (stereo not given)	98.7
C#Cc1cc(C(=O)Nc2ccc(CNCCN3CCOCC3)c(C(F)(F)F)c2)ccc1C	94.2
O=[N+]([O-])c1ccc(NC(=S)NNC(=S)Nc2ccc(F)cc2)cc1	89.9
O=C(CCCCCCN1CC(=O)N2[C@@H](c3ccccc3Br)c3[nH]c4ccccc4c3C[C@H]2C1=O)NO	30
CC(=O)N1N=C(c2cc3ccccc3oc2=O)CC1c1cn(-c2ccccc2)nc1-c1ccc(C)cc1 (stereo not given)	101
Cc1csc(/N=C(N)/N=C(\N)c2cccs2)n1	99.5
C(=N\Nc1nc(N/N=C/c2ccc3c(c2)OCO3)nc(N2CCCCC2)n1)/c1ccc2c(c1)OCO2	96.8
Cc1c(C(=O)/C=C/c2ccc(Cl)cc2)nnn1-c1ccc2oc(=O)ccc2c1	97.7
COc1ccc2c(c1)c(-c1nn3cc(-c4ccncc4)nc3s1)cn2C	86.3
Cc1ccc2c(n1)C(=O)C(Cl)=C(Nc1cccc(C(=O)OC(C)(C)C)c1)C2=O	88.1
N#Cc1c(-c2ccc(Br)cc2)cc(-c2c[nH]c3ccccc23)nc1N	58.9
O=C(Nc1ccccc1)Nc1nc2ccc([N+](=O)[O-])cc2[nH]1	40.4
Cn1c(SCC(=O)c2ccc(F)cc2)nc2ccccc2c1=O	91.6
CC(C)(C)OC(=O)Nc1ccc(-c2cccc(Oc3ccc4nnc(Cl)n4n3)c2)cc1	19.5
CN1CCN(c2ccc(Nc3nc(NCCCNS(=O)(=O)c4cccc5ccccc45)c4sccc4n3)cc2)CC1	-95.3
COCCOc1ccc2ncc(C#Cc3cncc(C(=O)Nc4ccc(CN5CCN(C)CC5)c(C(F)(F)F)c4)c3)n2n1	67.4
CCCCOc1ccc(S(=O)(=O)N2CCN(c3nc(C)cc(N4CCOCC4)n3)CC2)cc1	84
O=C(CCl)Nc1ccc(NC(=O)c2cc(Cl)ccc2O)c(Cl)c1	57.8
CCN(CC)S(=O)(=O)c1ccc(-c2nc(C(Cl)Cl)nc3cc(-c4ccc(F)cc4)nn23)cc1	83.3
C#Cc1nc(C(=O)NCCCCCCC(=O)NO)cs1	-55.9
CCOC(=O)c1c(NC(=O)c2cccc(C(F)(F)F)c2)sc2c3c(ccc12)OCN(C)C3	68.6
N#CC1=C2NCCCNc3oc(nc3C#N)Cc3ccccc3CC(=N1)O2	99.1
O=C(CSc1nc2ccccc2c(=O)n1-c1ccc(Cl)cc1)N/N=C/c1ccc(Oc2ccc(Cl)cc2)cc1	10.9
